tested on: Trypanosoma brucei brucei; assay: WHO-TDR: Human African Trypanosomiasis (HAT); assay type: functional, organism-based; conditions: Squib-427
reportedMetric: IC50

Task: For the molecule COC(=O)c1ccccc1N(C)C(=O)c1cc2cccnc2n(C)c1=O , report IC50.
Result: > 10.5 µg/mL

Next:
Task: For the molecule O=C(Cc1csc(Nc2ccccc2)n1)NCCc1c[nH]c2ccccc12 , report IC50.
Result: > 11.3 µg/mL

Task: For the molecule O=C(CSc1nnc(NC(=O)C2CCCCC2)s1)Nc1ccccc1C(F)(F)F , report IC50.
Result: > 13.3 µg/mL

---

experiment: WHO-TDR: Cytotoxicity; assay type: toxicity, cell-based; settings: human, MRC5 cells
reportedMetric: IC50

Task: For the compound Cn1ccnc1N1CCN(CC(=O)Nc2ccccc2C(F)(F)F)CC1 , report IC50.
Result: > 11 µg/mL

Next:
Task: For the compound COc1ccc2nc(-c3ccc(F)c(NC(=O)Cc4ccccc4)c3)cn2n1 , report IC50.
Result: > 11.3 µg/mL

Task: For the compound O=C(Cc1csc(Nc2cccc(Cl)c2)n1)N1CCN(C(=O)c2ccco2)CC1 , report IC50.
Result: 3.98 µg/mL

Task: For the compound O=C(Nc1nnc(Cc2cccs2)o1)c1cc(Cl)sc1Cl , report IC50.
Result: 0.967 µg/mL

Task: For the compound O=C(NC1CCCC1)c1csc(NC(=O)c2cccs2)n1 , report IC50.
Result: > 9.64 µg/mL

Task: For the compound COc1ccc(S(=O)(=O)N2CCN(c3ccc(-c4ccncc4)nn3)CC2)c(OC)c1 , report IC50.
Result: > 13.2 µg/mL

Task: For the compound COc1ccc(-c2cn3c(C(=O)Nc4ccc(F)cc4F)csc3n2)cc1 , report IC50.
Result: > 11.6 µg/mL

Task: For the compound Cc1nc2ccc3nc(Nc4nc5c(F)cccc5s4)sc3c2s1 , report IC50.
Result: > 11.2 µg/mL

---

test system: Leishmania infantum; assay: WHO-TDR: Leishmaniasis; assay type: functional, organism-based, Mus musculus; conditions: Macrophage
reportedMetric: IC50

Worked cases, IC50 given:
Task: For the compound O=c1ccc(-c2ccncc2)nn1CCNS(=O)(=O)c1ccc2c(c1)CCCC2 , report IC50.
Result: > 12.3 µg/mL

Task: For the compound Cc1cc(=O)[nH]c(-n2nc(C)c(CCC(=O)Nc3cc(C)on3)c2C)n1 , report IC50.
Result: > 10.7 µg/mL

Task: For the compound COc1cc(C)ccc1S(=O)(=O)NCCCn1nc(-c2ccc(F)cc2)ccc1=O , report IC50.
Result: > 12.9 µg/mL

Task: For the compound CCOC(=O)c1ccccc1NC(=O)CSc1ncc(CO)n1Cc1ccc(OC)cc1 , report IC50.
Result: > 13.7 µg/mL

API: the following record is the query input.
Task: For the compound CC(=O)c1cccc(Nc2nc(Nc3ccc(F)c(Cl)c3)nc(N3CCOCC3)n2)c1 , report IC50.
Result: > 13.3 µg/mL

---

Let's look at some compounds and their measured log10 of IC50.
experiment: WHO-TDR: Cytotoxicity; format: toxicity, cell-based; settings: human, MRC5 cells
Hello, just confirming the data are log10 of IC50 with units of µg/mL.

Worked cases, log10 of IC50 given:
Task: For the compound Cc1cccc(Nc2ccc(NCCNC(=O)Nc3ccccc3)nn2)n1 , report log10 of IC50.
Result: 1.02

Task: For the compound Cc1cc(NC(=O)COc2ccc(Cl)cc2)n(-c2nc(C)c(C)c(=O)[nH]2)n1 , report log10 of IC50.
Result: -0.47

Task: For the compound Cc1ccc(-c2ccc(=O)n(CCCNS(=O)(=O)c3ccc(Cl)s3)n2)cc1 , report log10 of IC50.
Result: 0.72

Task: For the compound O=C(c1ccccc1F)N1CCN(c2ccc(-c3ccccn3)nn2)CC1 , report log10 of IC50.
Result: 0.44

API: the following record is the query input.
Task: For the compound Cc1cccc(Nc2nc(Nc3ccc4c(c3)OCO4)nc(N3CCOCC3)n2)c1 , report log10 of IC50.
Result: 0.26

---

assay: WHO-TDR: Cytotoxicity; assay type: toxicity, cell-based; conditions: human, MRC5 cells
Let's look at some molecules and their measured IC50.

Task: For the molecule Cc1cc(NC(=O)CSc2ccc3nnc(-c4cccs4)n3n2)no1 , report IC50.
Result: > 11.2 µg/mL

Task: For the molecule COC(=O)c1ccc(NC(=O)CSc2nnc(NC(=O)c3cc(Cl)ccc3OC)s2)cc1 , report IC50.
Result: 4.1 µg/mL

Task: For the molecule Cc1noc(C)c1S(=O)(=O)Nc1cccc(-c2csc3nc(C)c(C)c(=O)n23)c1 , report IC50.
Result: > 12.9 µg/mL

Task: For the molecule C=CCn1/c(=N/C(=O)c2ccccc2I)sc2cc(S(C)(=O)=O)ccc21 , report IC50.
Result: > 15 µg/mL

Task: For the molecule Cc1ccc(NC(=O)CN2CCC(C(=O)NCCc3c[nH]c4ccccc34)CC2)c(C)c1 , report IC50.
Result: > 13 µg/mL

Task: For the molecule CC(C)Sc1ccc(C(=O)Nc2nc(-c3ccccn3)cs2)cc1 , report IC50.
Result: 3.11 µg/mL

Task: For the molecule O=S(=O)(Nc1ccc(-c2ccc3nnc(-c4ccccn4)n3n2)cc1)c1ccccc1F , report IC50.
Result: > 13.4 µg/mL

Task: For the molecule COc1cccc(NC(=O)N2CCN(c3ccc(Nc4cc(C)ccn4)nn3)CC2)c1 , report IC50.
Result: > 12.6 µg/mL

Next:
Task: For the molecule CCN(CC)CCN(C(=O)Cc1ccc2c(c1)OCO2)c1nc2c(C)c(C)ccc2s1 , report IC50.
Result: > 14.3 µg/mL

Task: For the molecule COc1ccc(-c2nnc(NC(=O)c3cccc(C(F)(F)F)c3)o2)cc1 , report IC50.
Result: 10.1 µg/mL

Task: For the molecule NC(=O)CSc1nc(-c2ccccc2)c(NC(=O)c2cc3ccccc3o2)s1 , report IC50.
Result: > 12.3 µg/mL

Task: For the molecule O=C(CCCn1nc(-c2ccccc2)ccc1=O)N1CCN(c2ccccc2F)CC1 , report IC50.
Result: > 12.6 µg/mL

Task: For the molecule O=C(Nc1ccc2c(c1)N(C(=O)c1cccs1)CC2)c1cc2ccccc2oc1=O , report IC50.
Result: > 12.5 µg/mL

Task: For the molecule O=C(NCCOc1ccc2nnc(-c3ccccc3)n2n1)c1ccccc1C(F)(F)F , report IC50.
Result: > 12.8 µg/mL

Task: For the molecule Cc1ccc(C)c2sc(N(CCCn3ccnc3)C(=O)c3ccco3)nc12 , report IC50.
Result: 3.53 µg/mL

Task: For the molecule Cc1nc(-c2ccccc2)sc1C(=O)Nc1cccc(-c2cn3c(n2)SCC3)c1 , report IC50.
Result: 8.81 µg/mL

Task: For the molecule CCN(CC)c1ccc(NC(=O)Cc2csc(NC(=O)c3cc(OC)cc(OC)c3)n2)c(C)c1 , report IC50.
Result: > 14.5 µg/mL

Task: For the molecule COc1ccccc1CC(=O)c1ccc(O)c(CN2CCCC(C)C2)c1O (stereo unspecified) , report IC50.
Result: > 11.1 µg/mL

Task: For the molecule CN(Cc1ccco1)S(=O)(=O)c1ccc(C(=O)Nc2nnc(-c3cccs3)o2)cc1 , report IC50.
Result: 2.5 µg/mL

Task: For the molecule CS(=O)(=O)c1ccccc1C(=O)Nc1nc(-c2cc3ccccc3o2)cs1 , report IC50.
Result: 5.25 µg/mL

Task: For the molecule CCOC(=O)c1sc(-c2ccccc2)cc1NC(=O)c1ccnn1C , report IC50.
Result: > 10.7 µg/mL

---

tested on: Leishmania infantum; experiment: WHO-TDR: Leishmaniasis; assay type: functional, organism-based, Mus musculus; conditions: Macrophage
reportedMetric: IC50

Worked cases, IC50 given:
Task: For the compound CCOC(=O)N1CCN(C(=O)Nc2nc(CC(=O)Nc3nc4ccccc4s3)cs2)CC1 , report IC50.
Result: > 14.2 µg/mL

Task: For the compound Cc1nn(-c2ccc(F)cc2)c2ncc(C(=O)NCc3ccco3)c(Cl)c12 , report IC50.
Result: 3.74 µg/mL

Task: For the compound COc1ccc(S(=O)(=O)N2CCN(c3ccc(Nc4ccccn4)nn3)CC2)cc1 , report IC50.
Result: 0.414 µg/mL

Task: For the compound Cc1ccc(S(=O)(=O)NCC(c2cccc3ccccc23)N2CCOCC2)cc1C (stereo not given) , report IC50.
Result: > 12.7 µg/mL

Task: For the compound CSc1cccc(C(=O)N(Cc2cccnc2)c2nc3ccc(S(C)(=O)=O)cc3s2)c1 , report IC50.
Result: > 14.1 µg/mL

Next:
Task: For the compound Cc1nc2scc(-c3cccc(NC(=O)NC4CCCCC4)c3)n2c(=O)c1C , report IC50.
Result: > 11.9 µg/mL

Task: For the compound O=C(c1ccco1)N1CCN(c2ccc(-c3cccs3)nn2)CC1 , report IC50.
Result: > 10.2 µg/mL

Task: For the compound O=C(Nc1nc2c(Cl)ccc(Cl)c2s1)C1=COCCO1 , report IC50.
Result: > 9.93 µg/mL

Task: For the compound COc1ccc(S(=O)(=O)NCC(c2cccc3ccccc23)N(C)C)cc1C (stereo not given) , report IC50.
Result: > 12 µg/mL

Task: For the compound O=C(Nc1nc(-c2ccncc2)cs1)C1CCCN(S(=O)(=O)c2ccc(Cl)s2)C1 (stereo not given) , report IC50.
Result: 4.55 µg/mL
